Each item that follows carries a reported logP.
- measurement-protocol: log P value (octanol-water partition coefficient) of the compound capable of mending the humidity dependence
- Type: physicochemical
- run-conditions: octanol-water partition coefficient of the humidity-dependence mending compound used in the second retardation film
property-label: logP

[[record]]
molecule = "CCCCCCCc1ccc(OC(=O)[C@H]2CC[C@H](C(=O)Oc3ccc(CCCCCCC)cc3)CC2)cc1"
observed_measurement = 11

[[record]]
molecule = "Cc1ccc(OC(=O)[C@H]2CC[C@H](C(=O)Oc3ccc(C)cc3C)CC2)c(C)c1"
observed_measurement = 5.7

[[record]]
molecule = "O=C(Oc1ccccc1)[C@H]1CC[C@H](C(=O)Oc2ccccc2)CC1"
observed_measurement = 3.7

[[record]]
molecule = "CCc1ccc(OC(=O)[C@H]2CC[C@H](C(=O)Oc3ccc(CC)cc3)CC2)cc1"
observed_measurement = 5.8


Measured values drawn from patent US7990502B2 for this set.
